pIC50: −log10 of the molar value.
Data export: pIC50 values recorded with Type-1 angiotensin II receptor A (Rattus norvegicus) (UniProt P25095).
Sequence (P25095 whole entry, looked up): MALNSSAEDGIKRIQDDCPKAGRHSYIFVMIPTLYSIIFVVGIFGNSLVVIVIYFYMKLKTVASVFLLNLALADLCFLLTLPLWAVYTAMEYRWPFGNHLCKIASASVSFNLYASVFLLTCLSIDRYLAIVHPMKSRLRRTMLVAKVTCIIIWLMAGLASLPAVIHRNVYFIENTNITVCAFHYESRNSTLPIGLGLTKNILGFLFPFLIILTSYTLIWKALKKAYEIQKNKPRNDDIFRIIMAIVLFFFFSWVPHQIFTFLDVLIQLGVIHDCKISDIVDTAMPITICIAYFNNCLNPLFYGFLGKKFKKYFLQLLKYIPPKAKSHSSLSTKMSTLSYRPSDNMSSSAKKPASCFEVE
readoutName: pIC50

> print(dat)
                            structurestring  experimentalresult
1  CCCc1cc(=O)n(CCN2C(=O)c3ccccc3C2=O)c(=O)n1Cc1ccc(-c2ccccc2-c2nnn[nH]2)cc1                8.36
2  CCCc1cc(=O)n(CCNC(=O)C(c2ccccc2)c2ccccc2)c(=O)n1Cc1ccc(-c2ccccc2-c2nnn[nH]2)cc1                7.85
